target: human TLR3 (Homo sapiens, UniProt O15455); test: 293T-TLR3-ISRE luciferase reporter assay; assay type: cell-based; conditions: dsRNA TLR3 agonists
metric.name: inhibition of dsRNA-induced TLR3 signaling, potency compared with antibody 31C3

molecule: 32C4: rat anti-human TLR3 monoclonal antibody; VH SEQ ID NO: 25, VL SEQ ID NO: 26 (antibody, listed as Rattus norvegicus, V domains shown) VH: EVQLQQYGAELGKPGTSVKLSCKVSGYNIWSTYIYWVNQRPGKGLEWIGRIDPANGNTIYAEKFKTKATLTADTSSNTAYMQLSQLKSDDTAIYFCAMGDHGGYVMDAWGQGASVTVSS VL: DIQMTQSPGSLSASLGETVSIECLASEDIYSYLAWYQQKPGKSPQLLIYAANRLEDGVPSRFSGSGSGTQYSLKISGMQPEDEGDYFCLQGSEFPYTFGTGTKLELK
assay.result: more potent

molecule: 11E1: mouse anti-human TLR3 monoclonal antibody; VH SEQ ID NO: 3, VL SEQ ID NO: 4 (antibody, listed as Mus musculus, V domains shown) VH: QVQLQQPGAELVRPGASVKLSCKASGYTFTNYWMNWVKQRPGQGLEWIGMIDPSDSETHYNQMFKDKATLTVDKSSSTAYMQLSSLTSEDSAVYYCARGGASSDYYYFDYWGQGTTLTVSSASTK VL: ETTVTQSPASLSMAIGEKVTIRCITSTDIHDDINWYQQKPGEPPKLLISEGNTLRPGVPSRFSSSGYGTDFVFTIENMLSEDVADYYCLQSDNLPRTFGGGTKLEIKRT
assay.result: more potent

molecule: 31F6: rat anti-human TLR3 monoclonal antibody; VH SEQ ID NO: 14, VL SEQ ID NO: 15 (antibody, listed as Rattus norvegicus, V domains shown) VH: EVQLQQSGAELGKPGTSVKLSCKVSGYNIRYTYMHWVNQRPGKGLEWIGRIDPANGDSIYGEDFKTKATLTADTSSNTAYMQLSQLKSDDTAIYFCAMGEFDYFDYWGQGVMVTVSSASTK VL: DIQMTQSPPSLSASLGETVSIECLASEGISNDLAWYQQRSGKSPQLLIYAASRLQDGVPSRFSGSGSGTRYSLKISGMQPEDEADYFCQQNYKYPLTFGSGTKLEIK
assay.result: more potent
